- experiment summary: Inhibition of Platelet-derived growth factor receptor at 50 uM
# if value of inhibition reaches 10%, tag TRUE; if it stays below, tag FALSE

Incoming: Is it the case that COc1ccc2[nH]c3ncnc(Nc4cccc(Br)c4)c3c2c1 has inhibition reaching or exceeding 10%?
Outgoing: FALSE

Incoming: Note, next up: Cc1cccc(Nc2ncnc3c2sc2ccc(N)cc23)c1
Outgoing: TRUE

Incoming: Note, next up: Brc1cccc(Nc2ncnc3c2sc2ccccc23)c1
Outgoing: FALSE

Incoming: Note, next up: C[C@H](Nc1ncnc2c1sc1ccccc12)c1ccccc1
Outgoing: FALSE

Incoming: Note, next up: Nc1ccc2sc3c(Nc4cccc(C(F)(F)F)c4)ncnc3c2c1
Outgoing: TRUE

Incoming: Note, next up: COc1ccc2c(c1)sc1c(Nc3cccc(Br)c3)ncnc12
Outgoing: TRUE
